# System: Morganella morganii
# test description: Disk zone diameter (25 ug/disk) against aerobic organism Morganella morganii strain 2834
readout label: zone diameter (mm)
Write the number in mm without appending the unit.

Here are 2 compounds together with their reported answers.
INSERT INTO assay_data (compound, target, units, value_observed) VALUES
  ('CC(=O)NCCSC1=C(C(=O)O)N2C(=O)[C@H](C(C)O)[C@H]2C1 (stereo not given in full)', 'Morganella morganii', 'mm', 28.5),
  ('C[C@@H](O)[C@H]1C(=O)N2C(C(=O)O)=C(SCCNC=N)C[C@H]12 [IMIPENEM ANHYDROUS]', 'Morganella morganii', 'mm', 27);

Could you share which zone diameter value was measured for CC(O)[C@H]1C(=O)N2C(C(=O)[O-])=C(SCCNc3cc[n+](C)cc3)C[C@H]12 (stereo not given in full) ? 26

Could you share which zone diameter value was measured for CC(O)[C@H]1C(=O)N2C(C(=O)[O-])=C(SCCNc3cccc[n+]3C)C[C@H]12 (stereo not given in full) ? 27

Could you share which zone diameter value was measured for CC(O)[C@H]1C(=O)N2C(C(=O)[O-])=C(SCCNc3cc[n+](Cc4ccccc4)cc3)C[C@H]12 (stereo not given in full) ? 26.5

====

Reported MIC is given for each of the following compounds.
# Test system: Proteus mirabilis
# test description: Minimum inhibitory concentration against aerobic organism Proteus mirabilis strain 2830
# Type: functional
# measurement setup: Proteus mirabilis; read-out: MIC

Could you share which MIC value was measured for CC1=C(C(=O)[O-])N2C(=O)[C@@H](Nc3cc[n+](Cc4ccccc4)cc3)[C@H]2SC1 ? > 128 µg/mL

Could you share which MIC value was measured for CC(C)[n+]1ccc(N[C@@H]2C(=O)N3C(C(=O)[O-])=C(CSc4nnnn4C)CS[C@H]23)cc1 ? 128 µg/mL

Could you share which MIC value was measured for CC(=O)OCC1=C(C(=O)O)N2C(=O)[C@@H](NC(=O)Cc3cccs3)[C@H]2SC1 ? 32 µg/mL

Could you share which MIC value was measured for COC(=O)c1c[n+](C)ccc1N[C@@H]1C(=O)N2C(C(=O)[O-])=C(CSc3nnnn3C)CS[C@H]12 ? > 128 µg/mL

Could you share which MIC value was measured for Cc1nnc(SCC2=C(C(=O)[O-])N3C(=O)[C@@H](Nc4cc[n+](COCC(Cl)(Cl)Cl)cc4C(=O)[O-])[C@H]3SC2)s1.[Na+] ? > 128 µg/mL

Could you share which MIC value was measured for O=C([O-])C1=C(CO)CS[C@@H]2[C@H](Nc3cc[n+](Cc4ccccc4)cc3)C(=O)N12 ? > 128 µg/mL

Could you share which MIC value was measured for CCOC(=S)SCC1=C(C(=O)[O-])N2C(=O)[C@@H](Nc3cc[n+](Cc4ccccc4)cc3)[C@H]2SC1 ? > 128 µg/mL

====

Reported MIC is given for each of the following molecules.
# Tested on: Enterococcus faecalis
# test description: Minimum inhibitory concentration against aerobic organism Streptococcus faecalis strain 2864
# Type: functional
Write the number in µg/mL without appending the unit.

INSERT INTO assay_data (sample_smiles, value_observed) VALUES
  ('CC(=O)OCC1=C(C(=O)[O-])N2C(=O)[C@@H](Nc3cc[n+](Cc4ccccc4)cc3)[C@H]2SC1', 128);

Could you share which MIC value was measured for CN(C)CCn1nnnc1SCC1=C(C(=O)[O-])N2C(=O)[C@@H](Nc3cc[n+](Cc4ccccc4)cc3)[C@H]2SC1 ? 128

====

# Tested on: Streptococcus pyogenes
# test description: Minimum inhibitory concentration against aerobic organism Streptococcus pyogenes strain 3124
# Assay type: functional
# measurement setup: Streptococcus pyogenes; read-out: MIC
Reported MIC is given for each of the following compounds.
Write the number in µg/mL without appending the unit.

INSERT INTO measurements (sample_smiles, readout_label, units, value_observed) VALUES
  ('Cc1ccccc1-[n+]1ccc(N[C@@H]2C(=O)N3C(C(=O)[O-])=C(CSc4nnnn4C)CS[C@H]23)cc1', 'MIC', 'µg/mL', 0.25);

Consider the record given below.
Could you share which MIC value was measured for CC(=O)OCC1=C(C(=O)[O-])N2C(=O)[C@@H](Nc3cc[n+](C)cc3)[C@H]2SC1 ? 2

====

Reported MIC is given for each of the following compounds.
# Test system: Streptococcus pyogenes
# test description: Minimum inhibitory concentration against aerobic organism Streptococcus pyogenes strain 3124
# Assay type: functional
# measurement setup: Streptococcus pyogenes; read-out: MIC
Write the number in µg/mL without appending the unit.

INSERT INTO assay_data (compound, target, readout_label, units, value_observed) VALUES
  ('CC1=C(C(=O)[O-])N2C(=O)[C@@H](Nc3cc[n+](Cc4ccccc4)cc3)[C@H]2SC1', 'Streptococcus pyogenes', 'MIC', 'µg/mL', 0.06);

Write down the reported MIC of Cn1nnnc1SCC1=C(C(=O)[O-])N2C(=O)C(Nc3cccc[n+]3C)C2SC1 (stereo not drawn) , test system: Streptococcus pyogenes. 32

Write down the reported MIC of COC(=O)c1ccc(NC2C(=O)N3C(C(=O)[O-])=C(CSc4nnnn4C)CSC23)[n+](C)c1 (stereo not drawn) , test system: Streptococcus pyogenes. 16

====

# System: Pseudomonas aeruginosa
# test description: Minimum inhibitory concentration against aerobic organism Pseudomonas aeruginosa strain 2835
# Format: functional
readout label: MIC

Here are 3 compounds together with their reported answers.
INSERT INTO results (compound, target, readout_label, value_observed) VALUES
  ('Cn1nnnc1SCC1=C(C(=O)[O-])N2C(=O)C(Nc3ccc(Cl)c[n+]3C)C2SC1 (stereo not drawn)', 'Pseudomonas aeruginosa', 'MIC', '> 128 µg/mL'),
  ('Cc1ccccc1-[n+]1ccc(N[C@@H]2C(=O)N3C(C(=O)[O-])=C(CSc4nnnn4C)CS[C@H]23)cc1', 'Pseudomonas aeruginosa', 'MIC', '> 128 µg/mL'),
  ('CC(C)[n+]1ccc(N[C@@H]2C(=O)N3C(C(=O)[O-])=C(CSc4nnnn4C)CS[C@H]23)cc1', 'Pseudomonas aeruginosa', 'MIC', '> 128 µg/mL');

Could you share which MIC value was measured for Cn1nnnc1SCC1=C(C(=O)[O-])N2C(=O)[C@@H](Nc3cc[n+](CCc4ccccc4)cc3)[C@H]2SC1 ? > 128 µg/mL

Could you share which MIC value was measured for Cn1nnnc1SCC1=C(C(=O)[O-])N2C(=O)[C@@H](Nc3cc[n+](Cc4ccco4)cc3)[C@H]2SC1 ? 128 µg/mL

Could you share which MIC value was measured for CC(=O)OCC1=C(C(=O)O)N2C(=O)[C@@H](NC(=O)Cc3cccs3)[C@H]2SC1 [CEPHALOTHIN] ? > 128 µg/mL

Could you share which MIC value was measured for CC(=O)OCC1=C(C(=O)[O-])N2C(=O)[C@@H](Nc3cc[n+](Cc4ccccc4)cc3)[C@H]2SC1 ? > 128 µg/mL

Could you share which MIC value was measured for COc1ccc(C[n+]2ccc(N[C@@H]3C(=O)N4C(C(=O)[O-])=C(CSc5nnnn5C)CS[C@H]34)cc2)cc1 ? > 64 µg/mL

====

# System: Enterococcus faecalis
# test description: Minimum inhibitory concentration against aerobic organism Streptococcus faecalis strain 2864
# Type: functional
readout label: MIC (µg/mL)
Write the number in µg/mL without appending the unit.

Could you share which MIC value was measured for Cn1nnnc1SCC1=C(C(=O)[O-])N2C(=O)[C@@H](Nc3cc[n+](Cc4ccccc4)cc3)[C@H]2SC1 ? 128

Could you share which MIC value was measured for C[n+]1ccccc1NC(C(=O)NC1C(=O)N2C1SC(C)(C)[C@@H]2C(=O)[O-])c1ccccc1 (some centres undefined) ? 12.5

====

Reported MIC is given for each of the following molecules.
# Tested on: Enterococcus faecalis
# test description: Minimum inhibitory concentration against aerobic organism Streptococcus faecalis strain 2864
# Assay type: functional
Write the number in µg/mL without appending the unit.

Here are 5 molecules together with their reported answers.
INSERT INTO results (molecule, units, value_observed) VALUES
  ('O=C(Cc1cccs1)N[C@@H]1C(=O)N2C(C(=O)[O-])=C(C[n+]3ccccc3)CS[C@H]12', 'µg/mL', 64),
  ('O=C([O-])C1=C(C[n+]2ccccc2)CS[C@@H]2[C@H]([N-]c3cc[n+](Cc4ccccc4)cc3)C(=O)N12', 'µg/mL', 128),
  ('CC1(C)SC2C(Nc3cc[n+](Cc4ccccc4)cc3)C(=O)N2[C@H]1C(=O)[O-] (stereo not given in full)', 'µg/mL', 128),
  ('C[n+]1ccc(NC(C(=O)NC2C(=O)N3C2SC(C)(C)[C@@H]3C(=O)[O-])c2ccccc2)cc1 (stereo not given in full)', 'µg/mL', 12.5),
  ('CC1=C(C(=O)[O-])N2C(=O)[C@@H](Nc3cc[n+](Cc4ccccc4)cc3)[C@H]2SC1', 'µg/mL', 128);

Consider the record given below.
Write down the reported MIC of O=C([O-])C1=C(CSc2cc[n+](Cc3ccccc3)cc2)CS[C@@H]2[C@H]([N-]c3cc[n+](Cc4ccccc4)cc3)C(=O)N12 , test system: Enterococcus faecalis. 64
